System: SF-295 CNS
protocolNotes: NCI-60 one-dose screen, 48 h (100 = growth as untreated, 0 = no growth, -100 = all killed)
cond: 10 µM unless noted
About 83,000 compounds went through this panel and 20% of them were active in at least one assay; those are over-represented in the sample as a whole. Active and inactive are the calls of the source. How the source made its calls: active means growth percent below 10; inactive means the rest.
experimentalEndpoint: growth

// solved cases for growth follow
{"columns": ["compound", "growth"],
 "data": [
  ["CC(=N\\N=C(N)N)/C(=N/N=C(N)N)c1ccccc1", "99.1% (inactive)"],
  ["CCC(C)(CC)c1ccc(O)c(C)c1", "105% (inactive)"],
  ["CCCCCCNC(=O)Oc1ccc(/C(=C(/C)Cc2ccc(OC)cc2)c2ccc(OCCN(C)C)cc2)cc1", "65.8% (inactive)"]
]}

// query Provide only the value of recorded growth for CC1(C)Oc2cc3oc(=O)ccc3cc2C[C@@H]1OCCOS(=O)(=O)c1ccc(C#N)cc1
// result 87.7% (inactive)

// query Provide only the value of recorded growth for CCNc1nnc(COc2ccc(CNC(=O)CCCC/C=C/C(C)C)cc2OC)o1
// result 97.1% (inactive)

----------
We begin with a simple list: items and their reported growth.
Tested on: SNB-19 CNS
protocolNotes: NCI-60 one-dose screen, 48 h (100 = growth as untreated, 0 = no growth, -100 = all killed)
cond: 10 µM unless noted
About 83,000 compounds went through this panel and 20% of them were active in at least one assay; those are over-represented in the sample as a whole.
Record the value in %, omitting the unit from your answer.

// solved cases for growth follow
{"columns": ["compound", "readoutUnits", "growth"],
 "data": [
  ["COC(=O)/C(Br)=C/c1c[nH]c2ccc(Br)cc12", "%", 88.7],
  ["C/C(=C\\c1ccc2ccccc2c1)[N+](=O)[O-]", "%", 90.6],
  ["N=C(N)N=Nc1ccc(NN=C(N)N)cc1", "%", 94.2],
  ["Cc1ccnc2c(NC(C)CCCN)cc(O)c(O)c12 (stereo unspecified)", "%", 102],
  ["O=C(CCCC(=O)Nc1ccc(Cn2nnc3cc(Cl)c(Cl)cc32)cc1)Nc1ccc(CN2N=NC3C=C(Cl)C(Cl)=CC32)cc1 (stereo unspecified)", "%", 86.2]
]}

Consider the additional compound presented here.
// query Provide only the value of recorded growth for CC(=O)c1ccc2c(c1)c1ccccc1n2C
// result 90.8

----------
Test system: SN12C renal
protocolNotes: NCI-60 one-dose screen, 48 h
cond: 10 µM unless noted
The panel holds about 83,000 compounds, 20% with a hit somewhere; the sample as a whole holds those more often. The source made the active and inactive calls. Rule for the calls: active = growth percent below 10; inactive = the rest.
# output must be one of active, inactive

{"columns": ["compound", "className"],
 "data": [
  ["COc1cc(-c2nn(-c3ccc(NC(=O)Nc4cc(C(F)(F)F)cc(C(F)(F)F)c4)cc3)cc2-c2ccncc2)ccc1Cl", "inactive"],
  ["O=C(/C=C\\c1ccc(NCc2ccc(C(=O)O)cc2)cc1)CCl", "inactive"],
  ["CCNc1nnc(COc2ccc(CNC(=O)CCCC/C=C/C(C)C)cc2OC)o1", "inactive"],
  ["O=C(N/N=C\\c1ccc(Cl)cc1)C(=O)N/N=C\\c1ccc(Cl)cc1", "inactive"]
]}

// query // param item: C/C=C/C/C=C/[C@H](C)C[C@H](O)[C@@H]1C[C@@H]2O[C@H]2/C=C/[C@H](O)[C@@H](O)/C=C/C[C@H](C)CC(=O)O1 ; yields the recorded call
// result inactive
